PROCEDURE_TEXT: Induction of nitric oxide release at 0.1 mM after 4 hrs in phosphate buffer at pH 7.4 by Griess assay
Format: physicochemical
CONDITION_DETAILS: pH 7.4, 4 h, 100 µM
MEASUREMENT_NAME: Activity
Answer as a quantity: numeral, then unit.

O=C(CO[N+](=O)[O-])Nc1ccc(C(=O)/C=C/c2ccc(Cl)cc2)cc1 :: 0.73 mol/mol
CC(O[N+](=O)[O-])C(=O)Nc1ccc(C(=O)/C=C/c2ccc(Cl)cc2)cc1 (centres undefined) :: 0.35 mol/mol
COc1ccc(/C=C/C(=O)c2ccc(NC(=O)C(C)O[N+](=O)[O-])cc2)cc1 (centres undefined) :: 0.17 mol/mol

GET /value?item= "O=C(COCc1c(-c2ccccc2)no[n+]1[O-])Nc1ccc(C(=O)/C=C/c2ccc3c(c2)OCO3)cc1" &field=Activity returns 0.89 mol/mol

Just so you know, measured Activity for "O=C(CO[N+](=O)[O-])Nc1ccc(C(=O)/C=C/c2ccco2)cc1" came out at 0.59 mol/mol

Form: molecule = CC(O[N+](=O)[O-])C(=O)Nc1ccc(C(=O)/C=C/c2ccco2)cc1 (centres undefined) ; Activity = 0.13 mol/mol

For this molecule ( "O=C(COCc1c(-c2ccccc2)no[n+]1[O-])Nc1ccc(C(=O)/C=C/c2ccco2)cc1" ), measured Activity is 0.499 mol/mol

Just so you know, measured Activity for "COc1ccc(/C=C/C(=O)c2ccc(NC(=O)COc3ccc(/C(C)=N\O)cc3)cc2)cc1" came out at 0.3 mol/mol

For this molecule ( "COc1ccc(/C=C/C(=O)c2ccc(NC(=O)CO[N+](=O)[O-])cc2)cc1" ), measured Activity is 0.66 mol/mol

---

Test system: Rattus norvegicus
PROCEDURE_TEXT: Antiinflammatory activity in albino rat assessed as inhibition of carrageenan-induced paw edema at 100 mg/kg, po administered 30 mins prior to challenge measured after 4 hrs relative to untreated control
Type: functional
Please mark 1 (yes) if the recorded inhibition in vivo at 100 mg/kg is equal to or greater than 50%, and 0 (no) if it falls below.

**Query** Would you say CC(O[N+](=O)[O-])C(=O)Nc1ccc(C(=O)/C=C/c2ccc3c(c2)OCO3)cc1 (stereo not drawn) shows inhibition in vivo at 100 mg/kg at minimum 50%?
**Result** 1 (yes)

**Query** Exam item: decide whether the reported inhibition in vivo at 100 mg/kg for "COc1ccc(/C=C/C(=O)c2ccc(NC(=O)COCc3c(-c4ccccc4)no[n+]3[O-])cc2)cc1" is at least 50%.
**Result** 1 (yes)

**Query** State whether the measured inhibition in vivo at 100 mg/kg reaches 50%, counting equality as reaching it, for "O=C(CO[N+](=O)[O-])Nc1ccc(C(=O)/C=C/c2ccco2)cc1"
**Result** 0 (no)

---

PROCEDURE_TEXT: Induction of nitric oxide release at 0.1 mM after 4 hrs in phosphate buffer at pH 7.4 by Griess assay
Assay type: physicochemical
CONDITION_DETAILS: pH 7.4, 4 h, 100 µM
MEASUREMENT_NAME: Activity

Consider "C/C(=N/O)c1ccc(OCC(=O)Nc2ccc(C(=O)/C=C/c3ccc(Cl)cc3)cc2)cc1" . Its measured Activity is 0.41 mol/mol

Entry "O=C(COCc1c(-c2ccccc2)no[n+]1[O-])Nc1ccc(C(=O)/C=C/c2ccc(Cl)cc2)cc1" , Activity reported as 1.295 mol/mol

---

Tested on: Rattus norvegicus
PROCEDURE_TEXT: Antiinflammatory activity in albino rat assessed as inhibition of carrageenan-induced paw edema at 100 mg/kg, po administered 30 mins prior to challenge measured after 2 hrs relative to untreated control
Assay type: functional
Classification field: enter Y for inhibition in vivo at 100 mg/kg values not below 40%, N for values below it.

Take a look at these entries with their results.
Nc1ccc(C(=O)/C=C/c2ccco2)cc1 :: N
C/C(=N/O)c1ccc(OCC(=O)Nc2ccc(C(=O)/C=C/c3ccc4c(c3)OCO4)cc2)cc1 :: Y
Nc1ccc(C(=O)/C=C/c2ccc(Cl)cc2)cc1 :: Y
O=C(CBr)Nc1ccc(C(=O)/C=C/c2ccc3c(c2)OCO3)cc1 :: Y
C/C(=N/O)c1ccc(OCC(=O)Nc2ccc(C(=O)/C=C/c3ccco3)cc2)cc1 :: Y
C/C(=N/O)c1ccc(OCC(=O)Nc2ccc(C(=O)/C=C/c3ccc(Cl)cc3)cc2)cc1 :: Y
COc1ccc(/C=C/C(=O)c2ccc(NC(=O)C(C)O[N+](=O)[O-])cc2)cc1 (stereo not drawn) :: Y
COc1ccc(/C=C/C(=O)c2ccc(N)cc2)cc1 :: Y

**Query** Answer whether inhibition in vivo at 100 mg/kg of "O=C(COCc1c(-c2ccccc2)no[n+]1[O-])Nc1ccc(C(=O)/C=C/c2ccco2)cc1" is greater than or equal to 40%.
**Result** Y

---

PROCEDURE_TEXT: Induction of nitric oxide release at 0.1 mM after 6 hrs in phosphate buffer at pH 7.4 by Griess assay
Type: physicochemical
CONDITION_DETAILS: pH 7.4, 6 h, 100 µM
In plain terms, low Activity, meaning strictly below 0.4 mol/mol, gives 1, and everything else gives 0.

Sample answers from the record:
COc1ccc(/C=C/C(=O)c2ccc(NC(=O)COCc3c(-c4ccccc4)no[n+]3[O-])cc2)cc1 :: 1
COc1ccc(/C=C/C(=O)c2ccc(NC(=O)C(C)O[N+](=O)[O-])cc2)cc1 (stereo unspecified) :: 1
COc1ccc(/C=C/C(=O)c2ccc(NC(=O)COc3ccc(/C(C)=N\O)cc3)cc2)cc1 :: 1
O=C(COCc1c(-c2ccccc2)no[n+]1[O-])Nc1ccc(C(=O)/C=C/c2ccc3c(c2)OCO3)cc1 :: 0
C/C(=N/O)c1ccc(OCC(=O)Nc2ccc(C(=O)/C=C/c3ccc(Cl)cc3)cc2)cc1 :: 1
CC(O[N+](=O)[O-])C(=O)Nc1ccc(C(=O)/C=C/c2ccco2)cc1 (stereo unspecified) :: 1

**Query** Item CC(O[N+](=O)[O-])C(=O)Nc1ccc(C(=O)/C=C/c2ccc(Cl)cc2)cc1 (stereo unspecified) : Activity beneath 0.4 mol/mol, strictly?
**Result** 1

**Query** Here's an entry: "C/C(=N/O)c1ccc(OCC(=O)Nc2ccc(C(=O)/C=C/c3ccco3)cc2)cc1" . Is its Activity below 0.4 mol/mol?
**Result** 1

**Query** Activity strictly < 0.4 mol/mol for this compound? "O=C(CO[N+](=O)[O-])Nc1ccc(C(=O)/C=C/c2ccc(Cl)cc2)cc1"
**Result** 0

**Query** Say whether its Activity is strictly beneath 0.4 mol/mol. Entry: "COc1ccc(/C=C/C(=O)c2ccc(NC(=O)CO[N+](=O)[O-])cc2)cc1"
**Result** 0

**Query** Lab log: compare recorded Activity with 0.4 mol/mol; is it strictly lower for CC(O[N+](=O)[O-])C(=O)Nc1ccc(C(=O)/C=C/c2ccc3c(c2)OCO3)cc1 (stereo unspecified) ?
**Result** 1

**Query** I'd appreciate it if you could check whether "O=C(COCc1c(-c2ccccc2)no[n+]1[O-])Nc1ccc(C(=O)/C=C/c2ccc(Cl)cc2)cc1" has Activity smaller than 0.4 mol/mol.
**Result** 0

**Query** Report whether reported Activity is lower than 0.4 mol/mol (strictly) for "O=C(COCc1c(-c2ccccc2)no[n+]1[O-])Nc1ccc(C(=O)/C=C/c2ccco2)cc1"
**Result** 0

---

In this section, each of the compounds is paired with its reported inhibition in vivo at 100 mg/kg.
Test system: Rattus norvegicus
PROCEDURE_TEXT: Antiinflammatory activity in albino rat assessed as inhibition of carrageenan-induced paw edema at 100 mg/kg, po administered 30 mins prior to challenge measured after 4 hrs relative to untreated control
Assay type: functional
Write the numeric value and follow it with the unit.

Nc1ccc(C(=O)/C=C/c2ccc3c(c2)OCO3)cc1 :: 50%
CC(Br)C(=O)Nc1ccc(C(=O)/C=C/c2ccc(Cl)cc2)cc1 (stereo not given) :: 54%
Nc1ccc(C(=O)/C=C/c2ccc(Cl)cc2)cc1 :: 58%
O=C(COCc1c(-c2ccccc2)no[n+]1[O-])Nc1ccc(C(=O)/C=C/c2ccc(Cl)cc2)cc1 :: 75%
CC(=O)c1ccc(OCC(=O)Nc2ccc(C(=O)/C=C/c3ccc(Cl)cc3)cc2)cc1 :: 58%

For this compound ( "O=C(CBr)Nc1ccc(C(=O)/C=C/c2ccc(Cl)cc2)cc1" ), measured inhibition in vivo at 100 mg/kg is 59%

inhibition in vivo at 100 mg/kg measured on COc1ccc(/C=C/C(=O)c2ccc(NC(=O)C(C)O[N+](=O)[O-])cc2)cc1 (stereo not given) = 43%

"O=C(CO[N+](=O)[O-])Nc1ccc(C(=O)/C=C/c2ccc(Cl)cc2)cc1" has a reported inhibition in vivo at 100 mg/kg of 67%

Form field inhibition in vivo at 100 mg/kg, entry "C/C(=N/O)c1ccc(OCC(=O)Nc2ccc(C(=O)/C=C/c3ccc(Cl)cc3)cc2)cc1" : 55%

Lab note: measured inhibition in vivo at 100 mg/kg of CC(Br)C(=O)Nc1ccc(C(=O)/C=C/c2ccc3c(c2)OCO3)cc1 (stereo not given) was 53%
